- Read-out: Monocyte Chemoattractant Protein-1 (MCP1), CCL2 (gene 6347)
- assay procedure: BSK_3C_MCP1: BioMAP Diversity Plus: 3C Assay for Monocyte Chemoattractant Protein-1 (MCP1) Biomarker Activity (AID 2283017)
- test parameters: primary human endothelial cells (HUVEC); actives raise or lower the signal
Calls of active or inactive are those of the source. Rule for the calls: active = hit-call score of the fitted dose curve at least 0.9, where 1 is the maximum; inactive = score below 0.9.
Entry note: the call must match one of active, inactive

### Prompt Hi, do you know how CCCCCc1ccc(N)cc1 came out in this test?
### Response inactive

### Prompt O=C(O)c1ccccc1C(=O)OCc1ccccc1 ?
### Response inactive

### Prompt Follow-up item: CN(C[C@@H](CC[N+]12CCC(C3CCCCC3)(CC1)CC2)c1ccc(Cl)c(Cl)c1)C(=O)c1cc(C(F)(F)F)cc(C(F)(F)F)c1
### Response active

### Prompt Here is the next compound: CCCCOC(=O)c1ccc(O)cc1
### Response inactive

### Prompt Proceed to CC1(C)NC(=O)N(c2ccc([N+](=O)[O-])c(C(F)(F)F)c2)C1=O
### Response inactive

### Prompt What would you report for O=C=NCCCCCCN=C=O ?
### Response inactive

### Prompt Now consider O=c1[nH]sc2ccccc12 .
### Response active

### Prompt And then CCN(Cc1cccnc1)C(=O)c1cccc(Cl)c1[C@]1(C)C(=O)N(Cc2ccc(OC)cc2OC)c2ccc(Cl)cc21 , what is it?
### Response active

### Prompt Cool, now CCCCCCCCOC(=O)c1cc(O)c(O)c(O)c1
### Response active

### Prompt # repeat for CN1C(=O)CC[C@H]1c1cccnc1
### Response inactive

### Prompt What do we get for CN(C)c1ccc(C(=C2C=CC(=[N+](C)C)C=C2)c2ccc(N(C)C)cc2)cc1 ?
### Response active

### Prompt Follow-up entry: CO[C@H]1/C=C/O[C@@]2(C)Oc3c(C)c(O)c4c(O)c(c(/C=N/N5CCN(C)CC5)c(O)c4c3C2=O)NC(=O)/C(C)=C\C=C\[C@H](C)[C@H](O)[C@@H](C)[C@@H](O)[C@@H](C)[C@H](OC(C)=O)[C@@H]1C
### Response inactive

### Prompt Can you check CCCCOC(=O)CC(CC(=O)OCCCC)(OC(C)=O)C(=O)OCCCC next?
### Response inactive

### Prompt Same question, O=C1c2ccccc2C(=O)N1CCc1noc(-c2ccc(CN3CCCCCC3)s2)n1 this time
### Response inactive

### Prompt And O=c1ccc2ccccc2o1 ?
### Response inactive

### Prompt // next record COc1cc(C(=O)NC2CCN(C)CC2)ccc1Nc1ncc2c(n1)N(C1CCCC1)CC(F)(F)C(=O)N2C
### Response active

### Prompt Param item: C[C@]12CC[C@@H]3c4ccc(O)cc4CC[C@H]3[C@@H]1CC[C@H]2O
### Response active

### Prompt Next compound: Cc1occc1C(=O)Nc1ccc(C(=O)N2CCC(F)(F)/C(=C\C(=O)N3CCC(N4CCCCC4)CC3)c3ccccc32)cc1
### Response inactive

### Prompt And for CCCOC(=O)c1cc(O)c(O)c(O)c1 ?
### Response inactive

### Prompt // same read-out, input: OC12N=C(c3ccccc3)SC1Cc1cc(Cl)ccc12 (stereo unspecified)
### Response inactive

### Prompt How about this compound: O=c1c(-c2ccc(O)cc2)coc2cc(O)cc(O)c12
### Response active
